Origin of the recorded values: ChEMBL document CHEMBL1128698

# TESTED_TARGET: Dihydrofolate reductase (Lactobacillus casei)
# Sequence (P00381 whole entry): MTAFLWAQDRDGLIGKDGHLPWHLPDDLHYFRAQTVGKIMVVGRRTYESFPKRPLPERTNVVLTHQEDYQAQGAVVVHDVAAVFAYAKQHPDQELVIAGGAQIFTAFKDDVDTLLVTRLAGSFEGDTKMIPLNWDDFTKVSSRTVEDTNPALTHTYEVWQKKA
OBSERVED_PROPERTY: pIC50
Remember, pIC50 is on a log scale: it is -log10 of the molar concentration.

Prompt: Form field - read-out: pIC50; system: Dihydrofolate reductase (Lactobacillus casei); submitted item: CC1=C(Sc2ccc(C(=O)NC(CCC(=O)O)C(=O)O)cc2)C2C(=O)NC(N)=NC2N1 (configuration not stated)
Response: 5.66

----------
# TESTED_TARGET: Thymidylate synthase (Lactobacillus casei, UniProt P00469)
# Sequence (P00469 whole entry): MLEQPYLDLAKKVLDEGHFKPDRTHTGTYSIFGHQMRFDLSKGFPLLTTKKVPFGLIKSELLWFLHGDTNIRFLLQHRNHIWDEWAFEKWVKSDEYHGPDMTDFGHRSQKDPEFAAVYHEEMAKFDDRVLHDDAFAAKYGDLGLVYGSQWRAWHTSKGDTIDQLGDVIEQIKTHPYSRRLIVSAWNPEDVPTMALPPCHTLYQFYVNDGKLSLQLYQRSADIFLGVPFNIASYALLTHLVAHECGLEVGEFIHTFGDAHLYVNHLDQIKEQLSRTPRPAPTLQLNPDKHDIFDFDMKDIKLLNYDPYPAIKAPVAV
OBSERVED_PROPERTY: IC50 (µM)
Please reply with the bare figure in µM and do not write the unit itself.

Prompt: Give the measured IC50 of CC1=C(Sc2ccncc2)C2C(=O)NC(N)=NC2N1 (configuration not stated) .
Response: 100

New cases:
Prompt: Give the measured IC50 of CC1=C(Sc2ccc(C(=O)NC(CCC(=O)O)C(=O)O)cc2)C2C(=O)NC(N)=NC2N1 (configuration not stated) .
Response: 0.021
